tested on: human HL60 cells; experiment: SWATH-MS proteomics, differential protein representation, akirin2 KO vs WT HL60 cells; type: cell-based; settings: Over-represented in KO; KO vs WT HL60 cells
quantity: Log (Fold Change)
Answer using only a numeral; do not append any unit.

Reported Log (Fold Change) of sp¦P60981¦DEST_HUMAN (protein, UniProt P60981 2-165, looked up) Destrin: ASGVQVADEVCRIFYDMKVRKCSTPEEIKKRKKAVIFCLSADKKCIIVEEGKEILVGDVGVTITDPFKHFVGMLPEKDCRYALYDASFETKESRKEELMFFLWAPELAPLKSKMIYASSKDAIKKKFQGIKHECQANGPEDLNRACIAEKLGGSLIVAFEGCPV : 0.1208

Consider sp¦Q9Y244¦POMP_HUMAN (protein, UniProt Q9Y244 1-141, looked up) Proteasome maturation protein: MNARGLGSELKDSIPVTELSASGPFESHDLLRKGFSCVKNELLPSHPLELSEKNFQLNQDKMNFSTLRNIQGLFAPLKLQMEFKAVQQVQRLPFLSSSNLSLDVLRGNDETIGFEDILNDPSQSEVMGEPHLMVEYKLGLL . Its measured Log (Fold Change) is 0.1275

The reported value for sp¦O14745¦NHRF1_HUMAN (protein, UniProt O14745 2-358, looked up) Na(+)/H(+) exchange …: SADAAAGAPLPRLCCLEKGPNGYGFHLHGEKGKLGQYIRLVEPGSPAEKAGLLAGDRLVEVNGENVEKETHQQVVSRIRAALNAVRLLVVDPETDEQLQKLGVQVREELLRAQEAPGQAEPPAAAEVQGAGNENEPREADKSHPEQRELRPRLCTMKKGPSGYGFNLHSDKSKPGQFIRSVDPDSPAEASGLRAQDRIVEVNGVCMEGKQHGDVVSAIRAGGDETKLLVVDRETDEFFKKCRVIPSQEHLNGPLPVPFTNGEIQKENSREALAEAALESPRPALVRSASSDTSEELNSQDSPPKQDSTAPSSTSSSDPILDFNISLAMAKERAHQKRSSKRAPQMDWSKKNELFSNL in terms of Log (Fold Change) is 0.1116

According to the records, this molecule sp¦O00273¦DFFA_HUMAN (protein, UniProt O00273 1-331, looked up) DNA fragmentation factor …: MEVTGDAGVPESGEIRTLKPCLLRRNYSREQHGVAASCLEDLRSKACDILAIDKSLTPVTLVLAEDGTIVDDDDYFLCLPSNTKFVALASNEKWAYNNSDGGTAWISQESFDVDETDSGAGLKWKNVARQLKEDLSSIILLSEEDLQMLVDAPCSDLAQELRQSCATVQRLQHTLQQVLDQREEVRQSKQLLQLYLQALEKEGSLLSKQEESKAAFGEEVDAVDTGISRETSSDVALASHILTALREKQAPELSLSSQDLELVTKEDPKALAVALNWDIKKTETVQEACERELALRLQQTQSLHSLRSISASKASPPGDLQNPKRARQDPT displays Log (Fold Change) of 0.1101

Log (Fold Change) for sp¦P10599¦THIO_HUMAN (protein, UniProt P10599 2-105, looked up) Thioredoxin: VKQIESKTAFQEALDAAGDKLVVVDFSATWCGPCKMIKPFFHSLSEKYSNVIFLEVDVDDCQDVASECEVKCMPTFQFFKKGQKVGEFSGANKEKLEATINELV is 0.1444

Form field Log (Fold Change), entry sp¦O75937¦DNJC8_HUMAN (protein, UniProt O75937 2-253, looked up) DnaJ homolog subfamily C …: AASGESGTSGGGGSTEEAFMTFYSEVKQIEKRDSVLTSKNQIERLTRPGSSYFNLNPFEVLQIDPEVTDEEIKKRFRQLSILVHPDKNQDDADRAQKAFEAVDKAYKLLLDQEQKKRALDVIQAGKEYVEHTVKERKKQLKKEGKPTIVEEDDPELFKQAVYKQTMKLFAELEIKRKEREAKEMHERKRQREEEIEAQEKAKREREWQKNFEESRDGRVDSWRNFQANTKGKKEKKNRTFLRPPKVKMEQRE : 0.1309

The recorded Log (Fold Change) for entry sp¦Q99614¦TTC1_HUMAN (protein, UniProt Q99614 1-292, looked up) Tetratricopeptide repeat …: MGEKSENCGVPEDLLNGLKVTDTQEAECAGPPVPDPKNQHSQSKLLRDDEAHLQEDQGEEECFHDCSASFEEEPGADKVENKSNEDVNSSELDEEYLIELEKNMSDEEKQKRREESTRLKEEGNEQFKKGDYIEAESSYSRALEMCPSCFQKERSILFSNRAAARMKQDKKEMAINDCSKAIQLNPSYIRAILRRAELYEKTDKLDEALEDYKSILEKDPSIHQAREACMRLPKQIEERNERLKEEMLGKLKDLGNLVLRPFGLSTENFQIKQDSSTGSYSINFVQNPNNNR equals 0.1114

Data point: sp¦O00154¦BACH_HUMAN (protein, UniProt O00154 1-380, looked up) Cytosolic acyl coenzyme A …: MKLLARALRLCEFGRQASSRRLVAGQGCVGPRRGCCAPVQVVGPRADLPPCGACITGRIMRPDDANVAGNVHGGTILKMIEEAGAIISTRHCNSQNGERCVAALARVERTDFLSPMCIGEVAHVSAEITYTSKHSVEVQVNVMSENILTGAKKLTNKATLWYVPLSLKNVDKVLEVPPVVYSRQEQEEEGRKRYEAQKLERMETKWRNGDIVQPVLNPEPNTVSYSQSSLIHLVGPSDCTLHGFVHGGVTMKLMDEVAGIVAARHCKTNIVTASVDAINFHDKIRKGCVITISGRMTFTSNKSMEIEVLVDADPVVDSSQKRYRAASAFFTYVSLSQEGRSLPVPQLVPETEDEKKRFEEGKGRYLQMKAKRQGHAEPQP ; Log (Fold Change) = 0.1157

The molecule identified as sp¦O14737¦PDCD5_HUMAN (protein, UniProt O14737 2-125, looked up) Programmed cell death protein …: ADEELEALRRQRLAELQAKHGDPGDAAQQEAKHREAEMRNSILAQVLDQSARARLSNLALVKPEKTKAVENYLIQMARYGQLSEKVSEQGLIEILKKVSQQTEKTTTVKFNRRKVMDSDEDDDY registered its Log (Fold Change) at 0.1162
